- target-of-assay: protein F of hRSV strain B-1 (on RSV B-1-infected Hep2 cells and on virus) (human respiratory syncytial virus, …, UniProt P13843 26-574)
- assay-info: cell ELISA on RSV B-1-infected Hep2 cells, periplasmic extract 1:50
Measured Binding Hep2-B-1 (% control) 1:50 PE accompanies every entry in the list below.
Number first, unit second.

Take a look at these entries with their results.
Nanobody 23E5 (VHH, also called PMP23E5; PRSV23E5) VHH: EVQLMESGGGLVQAGGSLRLSCAASGGTFSSYAMGWFRQAPGEERDFVAAIGWSGNSPYYAQFVKGRFTISRDNAKNTVHLQMNSLKPEDTAVYYCAAAHNTMGSDYEGYDYWGQGTQVTVSS ... 103 % control
Nanobody 8B10 (VHH, also called PMP8B10; PRSV8B10) VHH: EVQLVESGGGLVQAGASLRLSCAASGLAFSRYAMGWFRQAPGKERESVAAISSSGDNIYYADSVKGQFTMSRDNAKSSVYLQMINLKPEDTAVYYCAATSPLFVASDYFEASRYGYWGQGTQVTVSS ... 94 % control
Nanobody 20B2 (VHH, also called PMP20B2; PR5V20B2) VHH: EVQLVESGGGLVQAGGSLRLSCEASGRTFSSYDMGWFRQAPGKEREFVAAVTRWSGARGVYADSVKGRFTISRDNAENTVHLQMNSLKPEDTAVYTCAADSTNRNSGAVYYTWAYDYWGQGTQVTVSS ... 32 % control

Value lookup for Binding Hep2-B-1 (% control) 1:50 PE; key = Nanobody 13E12 (VHH, also called PMP13E12; PRSV13E12) VHH: EVQLVESGGGLVQAGGSLRLSCAASGRTFSRYIMGWFRQAPGKEREFVGAISRSGDITSFADFVKGRFTMSRDNAKNTLYLQMNSLEPEDTAVYSCAANSDTYYIYSDIVVPERYDYWGQGTQVTVSS
97 % control
